Data provenance is ChEMBL document CHEMBL4765236.

tested on: Escherichia coli; assay: Antibacterial activity against Escherichia coli O157:H7 CICC 21530 assessed as bacterial growth inhibition incubated for 18 to 24 hrs in presence of 6 mM NH4Cl by microtiter broth dilution method (reference value: 0.85 to > 71.5 uM); type: functional; settings: time 18-24 hrs
property_measured: MIC (µM)
Provide only the numeric value, understood in µM.

1. H-WLRAFRRLVRRLARGLRR-NH2 :: 0.85
2. H-WGRAFSAGVHRLARGGRG-NH2 :: 8.35
3. H-WGRAFSRGVRRLARGGRG-NH2 :: 7.94
4. H-WGRAFRRGVRRLARGGRR-NH2 :: 3.67

Please look at the following substance next.
The substance H-WGRAFRRLVRRLARGLRR-NH2 showed MIC equal to 3.49

----------
Measured MIC values are reported for all entries that follow.
system: Escherichia coli; experiment: Antibacterial activity against Escherichia coli O157:H7 CICC 21530 assessed as bacterial growth inhibition incubated for 18 to 24 hrs in presence of 4 mM FeCl3 by microtiter broth dilution method (reference value: 0.85 to > 71.5 uM); type: functional; conditions: time 18-24 hrs

1. H-WGRAFRRGVRRLARGGRR-NH2 :: > 58.6 µM
2. H-WLRAFRRLVRRLARGLRR-NH2 :: 6.81 µM
3. H-WGEAFSAGVHRLANGGNG-NH2 :: > 71.2 µM
4. H-WGRAFSAGVHRLARGGRG-NH2 :: > 67 µM
5. H-WLRAFRRLVRRLARLLRR-NH2 :: > 53.2 µM

MIC for H-WGRAFSRGVRRLARGGRG-NH2 is > 63.5 µM

Short answer for H-WGRAFSAGVHRLANGGNG-NH2 : MIC was > 70.1 µM

Lab note: H-WGRAFRRLVRRLARGLRR-NH2 gave MIC of > 55.8 µM

----------
// reported selectivity ratio per item
assay: Therapeutic index, ratio of MHC10 for human RBC to geometric mean of peptide MIC for Escherichia coli O157:H7 CICC 21530; assay type: toxicity; settings: human red blood cells (RBC), pooled result: one value given for 11 cell lines, strains, targets or settings, read-out: TI

1. H-WLRAFRRLVRRLARGLRR-NH2 :: 20.5

According to the records, this substance H-WGRAFRRLVRRLARGLRR-NH2 displays selectivity ratio of 10.3

# substance H-WGRAFSAGVHRLANGGNG-NH2 ; its selectivity ratio = 1

----------
system: RAW264.7; experiment: Antiinflammatory activity against mouse RAW264.7 cells assessed as inhibition of LPS-induced TNF-alpha production at 0.5 to 64 uM measured after 24 hrs by […] ELISA; format: functional, cell-based; settings: dose 0.5-64 µM
Active and inactive are the calls of the source. The calls are words filed in the database; no cut-off is given here.
property_measured: Activity

1. H-WGRAFSAGVHRLARGGRG-NH2 :: Active
2. H-WGRAFSRGVRRLARGGRG-NH2 :: Active
3. H-WGRAFRRGVRRLARGGRR-NH2 :: Active
4. H-WGEAFSAGVHRLANGGNG-NH2 :: Active
5. H-WGRAFRRLVRRLARGLRR-NH2 :: Active
6. H-WLRAFRRLVRRLARLLRR-NH2 :: Active

Query H-WGRAFSAGVHRLANGGNG-NH2 yields Activity of Active

response.value for H-WLRAFRRLVRRLARGLRR-NH2 (field: Activity) = Active

----------
tested on: Micrococcus luteus; assay: Antibacterial activity against Micrococcus luteus CMCC 28001 assessed as bacterial growth inhibition incubated for 18 to 24 hrs by microtiter broth dilution method; type: functional; conditions: time 18-24 hrs
# maps each entry to its MIC
Dear colleague, please return just the value in µM, with no unit written.

1) H-WGRAFRRLVRRLARGLRR-NH2 :: 27.9
2) H-WLRAFRRLVRRLARLLRR-NH2 :: 13.3
3) H-WLRAFRRLVRRLARGLRR-NH2 :: 0.43

Now let's try a different one.
For reference, reported MIC for H-WGRAFRRGVRRLARGGRR-NH2 stands at 7.33

----------
tested on: Cell membrane; experiment: Induction of inner membrane permeabilization in Escherichia coli O157:H7 CICC 21530 assessed as cytoplasmic beta-galactosidase release at 1 times MIC using ONPG as substrate by […]; type: subcellular
Activity calls are given as the source filed them. The calls are words filed in the database; no cut-off is given here.
Outcome field: choose from YES = active, NO = inactive

1. H-WLRAFRRLVRRLARLLRR-NH2 :: NO

Query: Hello, I am checking results. What call was entered for H-WGRAFSAGVHRLARGGRG-NH2 ?
Reply: NO

Query: Record lookup: outcome of this test for H-WGRAFSRGVRRLARGGRG-NH2 ?
Reply: NO

Query: Assay outcome for H-WGRAFRRGVRRLARGGRR-NH2 : what was it?
Reply: NO

Query: Any idea what this test logged for H-WGRAFSAGVHRLANGGNG-NH2 ?
Reply: NO

Query: // outcome(item) with item = H-WGEAFSAGVHRLANGGNG-NH2
Reply: NO

Query: Hey, what did the test say about H-WGRAFRRLVRRLARGLRR-NH2 ?
Reply: NO

Query: I'd appreciate the recorded outcome for H-WLRAFRRLVRRLARGLRR-NH2 from this test.
Reply: YES

----------
tested on: Escherichia coli; experiment: Antibacterial activity against Escherichia coli O157:H7 CICC 21530 assessed as bacterial growth inhibition incubated for 18 to 24 hrs in presence of 4.5 mM KCl by microtiter broth dilution method (reference value: 0.85 to > 71.5 uM); assay type: functional; settings: time 18-24 hrs
Entries annotated with measured MIC
Field: numeric (µM). Do not append units.

For reference, reported MIC for H-WGRAFRRGVRRLARGGRR-NH2 stands at 3.67

----------
test system: Salmonella paratyphi; assay: Antibacterial activity against Salmonella paratyphi C CICC 21512 assessed as bacterial growth inhibition incubated for 18 to 24 hrs by microtiter broth dilution method; assay type: functional; settings: Salmonella enterica, time 18-24 hrs
property_measured: MIC (µM)
Expressed in µM, but write only the number.

See these solved cases before continuing.
1. H-WLRAFRRLVRRLARLLRR-NH2 :: 6.65
2. H-WGRAFSRGVRRLARGGRG-NH2 :: 15.9
3. H-WGRAFRRGVRRLARGGRR-NH2 :: 7.33
4. H-WLRAFRRLVRRLARGLRR-NH2 :: 0.43

get_value(item= H-WGRAFRRLVRRLARGLRR-NH2 , readout=MIC) returns 3.49

----------
tested on: Salmonella enterica subsp. enterica serovar Paratyphi B; assay: Antibacterial activity against Salmonella paratyphi B CICC 21495 assessed as bacterial growth inhibition incubated for 18 to 24 hrs by microtiter broth dilution method; format: functional; details: time 18-24 hrs
The threshold is 4 µM. Values of MIC beneath it are tagged class 1; values meeting or exceeding it are tagged class 0.

1. H-WGRAFSAGVHRLARGGRG-NH2 :: class 0
2. H-WGRAFSAGVHRLANGGNG-NH2 :: class 0
3. H-WLRAFRRLVRRLARLLRR-NH2 :: class 1
4. H-WGRAFRRLVRRLARGLRR-NH2 :: class 0
5. H-WGRAFSRGVRRLARGGRG-NH2 :: class 0

Query: Identify whether the substance H-WGEAFSAGVHRLANGGNG-NH2 records MIC below 4 µM.
Reply: class 0

Query: Lab note: confirm whether the reported MIC for this substance is below 4 µM, equality not counting. substance: H-WGRAFRRGVRRLARGGRR-NH2
Reply: class 1

Query: I wonder whether H-WLRAFRRLVRRLARGLRR-NH2 has MIC below 4 µM. Can you tell?
Reply: class 1

----------
tested on: Escherichia coli; assay: Antibacterial activity against Escherichia coli O157:H7 CICC 21530 assessed as bacterial growth inhibition incubated for 18 to 24 hrs by microtiter broth dilution method; type: functional; conditions: time 18-24 hrs
Measured MIC values are reported for all entries that follow.
Report the figure in µM without appending any unit label.

1. H-WLRAFRRLVRRLARGLRR-NH2 :: 0.85
2. H-WGRAFRRGVRRLARGGRR-NH2 :: 3.67
3. H-WGRAFRRLVRRLARGLRR-NH2 :: 6.97

Noted for H-WLRAFRRLVRRLARLLRR-NH2 : its MIC reads 3.32

Entry under test: H-WGRAFSRGVRRLARGGRG-NH2 . Its MIC was 7.94

Record summary for H-WGRAFSAGVHRLARGGRG-NH2 : reported MIC = 16.8

----------
system: Bacillus pumilus; assay: Antibacterial activity against Bacillus pumilus CMCC 63202 assessed as bacterial growth inhibition incubated for 18 to 24 hrs by microtiter broth dilution method; format: functional; details: time 18-24 hrs
property_measured: MIC

In the examples that follow, each entry is paired with its recorded MIC.
1. H-WGRAFSAGVHRLARGGRG-NH2 :: > 67 µM
2. H-WGRAFRRLVRRLARGLRR-NH2 :: 55.8 µM
3. H-WGRAFSRGVRRLARGGRG-NH2 :: > 63.5 µM
4. H-WLRAFRRLVRRLARLLRR-NH2 :: 26.6 µM
5. H-WGRAFSAGVHRLANGGNG-NH2 :: > 70.1 µM

I looked up H-WLRAFRRLVRRLARGLRR-NH2 and its MIC for Bacillus pumilus was 0.85 µM

Summary line: H-WGEAFSAGVHRLANGGNG-NH2 , Bacillus pumilus, reported MIC = > 71.2 µM

Response field MIC (Bacillus pumilus) for item H-WGRAFRRGVRRLARGGRR-NH2 : > 58.6 µM
